target: full-length beta-catenin (Axin site) (Homo sapiens); construct: 15 nM full-length beta-catenin, 20 nM FITC labeled peptide in buffer; experiment: Competition fluorescence polarization assay (Axin site probe); type: binding; conditions: competition fluorescence polarization, Table 2; read-out: in vitro FP EC50
Sequence (P35222 whole entry): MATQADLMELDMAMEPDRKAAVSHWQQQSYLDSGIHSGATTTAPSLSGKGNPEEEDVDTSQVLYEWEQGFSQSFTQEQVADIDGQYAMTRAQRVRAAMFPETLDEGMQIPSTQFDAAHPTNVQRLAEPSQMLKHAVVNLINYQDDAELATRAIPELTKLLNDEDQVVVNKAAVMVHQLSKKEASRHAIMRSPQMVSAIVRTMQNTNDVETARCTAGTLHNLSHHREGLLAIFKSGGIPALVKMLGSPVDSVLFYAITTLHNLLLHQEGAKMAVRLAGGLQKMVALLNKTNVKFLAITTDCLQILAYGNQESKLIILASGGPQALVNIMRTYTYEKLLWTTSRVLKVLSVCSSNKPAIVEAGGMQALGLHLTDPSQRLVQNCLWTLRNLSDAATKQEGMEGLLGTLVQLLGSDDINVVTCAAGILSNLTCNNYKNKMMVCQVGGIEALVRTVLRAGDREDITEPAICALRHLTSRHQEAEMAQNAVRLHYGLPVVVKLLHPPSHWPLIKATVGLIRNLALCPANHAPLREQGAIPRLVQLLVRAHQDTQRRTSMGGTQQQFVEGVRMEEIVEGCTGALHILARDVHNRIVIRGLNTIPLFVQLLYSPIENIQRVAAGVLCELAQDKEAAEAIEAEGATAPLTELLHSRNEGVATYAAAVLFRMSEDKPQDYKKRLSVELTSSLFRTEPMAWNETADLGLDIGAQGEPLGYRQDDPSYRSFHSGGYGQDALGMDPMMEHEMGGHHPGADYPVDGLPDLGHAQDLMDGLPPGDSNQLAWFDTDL
pEC50: −log10 of the molar value.
TEST_READOUT: pEC50

The recorded pEC50 for entry CC[C@H](C)[C@@H]1NC(=O)[C@H](Cc2ccccn2)NC(=O)[C@H](C)NC(=O)[C@H](CC(=O)O)NC(=O)[C@H](CC(C)C)NC(=O)[C@H]([C@@H](C)CC)NC(=O)[C@](C)(NC(=O)[C@H](C)NC(C)=O)CCCCCCC=CCOC(=O)N2CC[C@@](C(=O)N[C@@H](Cc3ccc(O)cc3)C(=O)N[C@H](C(=O)N[C@@H](Cc3c[nH]c4ccccc34)C(N)=O)C(C)C)(C2)NC1=O (single isomer, unassigned) [FP0564c Isomer 2, Ac-A-R8-I-L-D-A-2pyr-I-MB-Y-V-W-NH2] equals < 5.30

Cited source: patent US11198713B2
